# Test system: Klebsiella aerogenes DSM 30053
# Test method notes: fold change of Cadaverine concentration vs plate DMSO controls (fold change (ratio)); higher = more amine produced, active = hit call of the paper (significant change in both replicates, either direction)
# Reported conditions: incubation time: 27 h, anaerobic, 37 °C

{"columns": ["Molecule", "fold change of Cadaverine concentration"],
 "data": [
  ["CC(C(=O)O)c1ccc2c(c1)Cc1cccnc1O2 (stereo not drawn) [Pranoprofen] (20 µM)", "1.01 (inactive)"],
  ["OC[C@H]1OC(O)[C@H](O)[C@H](O)[C@@H]1O (stereo partly drawn) [D-allose] (50 µM)", "0.993 (inactive)"],
  ["CC1CCc2cc(F)cc3c(=O)c(C(=O)O)cn1c23 (stereo not drawn) [Flumequine] (20 µM)", "0.975 (inactive)"]
]}

* * *

# Test system: Klebsiella aerogenes DSM 30053
# Test method notes: growth (OD595) fold change vs plate DMSO controls (fold change (ratio)); higher = more growth
# Reported conditions: incubation time: 27 h, anaerobic, 37 °C
Structures can show the parent of a compound that is named as a salt.

{"columns": ["Compound", "growth"],
 "data": [
  ["NC(=O)NS(=O)(=O)c1ccc(N)cc1 [Sulfacarbamide] (20 µM)", 0.993],
  ["Cc1c(NC(C)C)c(=O)n(-c2ccccc2)n1C [Isopyrin hydrochloride] (20 µM)", 1.02],
  ["O=C(NCc1ncc(C(F)(F)F)cc1Cl)c1c(Cl)cccc1Cl (20 µM)", 1],
  ["O=C(O)c1cccnc1Nc1cccc(C(F)(F)F)c1 [Niflumic acid] (20 µM)", 0.996],
  ["CCCC(CCC)C(=O)O [Valproic acid] (20 µM)", 0.99]
]}

* * *

fold change of Putrescine concentration listing for selected molecules.
# Tested on: Klebsiella aerogenes DSM 30053
# Test method notes: fold change of Putrescine concentration vs plate DMSO controls (fold change (ratio)); higher = more amine produced, active = hit call of the paper (significant change in both replicates, either direction)
# Reported conditions: incubation time: 27 h, anaerobic, 37 °C
Where a name gives a salt, the structure may show the parent alone.

{"columns": ["Molecule", "fold change of Putrescine concentration"],
 "data": [
  ["Cc1c(-c2ccccc2)oc2c(C(=O)OCCN3CCCCC3)cccc2c1=O [Flavoxate hydrochloride] (20 µM)", 1],
  ["CC(=O)N(CC(O)CN(C(C)=O)c1c(I)c(C(=O)NCC(O)CO)c(I)c(C(=O)NCC(O)CO)c1I)c1c(I)c(C(=O)NCC(O)CO)c(I)c(C(=O)NCC(O)CO)c1I (configuration not stated) [Iodixanol] (20 µM)", 1],
  ["CCCCCCOc1ccccc1C(N)=O [Exalamide] (20 µM)", 1.01],
  ["COC(=O)Nc1nc2cc(C(=O)c3cccs3)ccc2[nH]1 [Nocodazole] (20 µM)", 1],
  ["CN(CCOc1ccc(CC2SC(=O)NC2=O)cc1)c1ccccn1 (configuration not stated) [Rosiglitazone hydrochloride] (20 µM)", 0.993],
  ["CCCCC(CC)CN1C(=O)[C@@H]2[C@H](C1=O)[C@@H]1C=C[C@H]2C1 (mixture of isomers) (20 µM)", 0.987],
  ["C#CCN(C)CCCOc1ccc(Cl)cc1Cl [Clorgyline hydrochloride] (20 µM)", 0.984],
  ["Cc1ccc(Nc2c(F)cccc2Cl)c(CC(=O)O)c1 [Lumiracoxib] (20 µM)", 1.02],
  ["CN1C(=O)OC(C)(C)C1=O [Trimethadione] (20 µM)", 0.987],
  ["CC(=O)Nc1cccc(O)c1 [Metacetamol] (20 µM)", 0.992],
  ["CC(=O)OCC(=O)[C@@]12OC(C)(C)O[C@@H]1C[C@H]1[C@@H]3C[C@H](F)C4=CC(=O)C=C[C@]4(C)[C@@]3(F)[C@@H](O)C[C@@]12C [Fluocinonide] (20 µM)", 1],
  ["CS(=O)(=O)Nc1ccc([N+](=O)[O-])cc1Oc1ccccc1 [Nimesulide] (20 µM)", 1.01]
]}
